System Under Test: T1, huNectin4-His (human, UniProt Q96NY8 32-349)
T1 construct: Immobilized on the SPR chip; also called humanNectin4; human Nectin4; not shown: His tag
T1 sequence (looked up): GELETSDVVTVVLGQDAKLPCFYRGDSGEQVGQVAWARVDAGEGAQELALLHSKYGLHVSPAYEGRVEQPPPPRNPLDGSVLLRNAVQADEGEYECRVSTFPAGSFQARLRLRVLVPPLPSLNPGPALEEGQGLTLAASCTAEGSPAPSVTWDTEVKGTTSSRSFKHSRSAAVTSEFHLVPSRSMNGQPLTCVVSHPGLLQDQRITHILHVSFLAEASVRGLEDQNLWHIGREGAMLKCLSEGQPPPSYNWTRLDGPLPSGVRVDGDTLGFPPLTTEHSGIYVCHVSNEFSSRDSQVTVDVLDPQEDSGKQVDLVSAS
Assay Comment: SPR, huNectin4-His immobilized, pH 6.0
Can you tell me kon for the items I'm about to list?
One number for each entry, in M⁻¹ s⁻¹.

Sample answers from the record:
BAP-143-06-33-16 (antibody, V domains shown, Used as a conjugate with a linker payload (CAB ADC)) VH: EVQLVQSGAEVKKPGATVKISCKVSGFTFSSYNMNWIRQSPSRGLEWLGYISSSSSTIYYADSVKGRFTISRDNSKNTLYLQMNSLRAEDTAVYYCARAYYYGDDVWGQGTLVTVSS VL: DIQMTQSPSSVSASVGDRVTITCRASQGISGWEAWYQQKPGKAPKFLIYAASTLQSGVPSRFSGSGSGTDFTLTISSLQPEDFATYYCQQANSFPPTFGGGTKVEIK | 1.77e+06
BAP-143-07-03-12 (antibody, V domains shown, Used as a conjugate with a linker payload (CAB ADC)) VH: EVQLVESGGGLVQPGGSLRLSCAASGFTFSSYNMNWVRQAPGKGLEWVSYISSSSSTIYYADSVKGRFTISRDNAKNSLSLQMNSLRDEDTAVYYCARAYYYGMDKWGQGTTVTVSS VL: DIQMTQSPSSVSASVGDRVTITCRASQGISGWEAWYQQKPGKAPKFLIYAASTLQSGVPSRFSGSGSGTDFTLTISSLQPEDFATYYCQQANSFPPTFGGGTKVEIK | 1.26e+06
BAP-143-06-24-16 (antibody, V domains shown, Used as a conjugate with a linker payload (CAB ADC)) VH: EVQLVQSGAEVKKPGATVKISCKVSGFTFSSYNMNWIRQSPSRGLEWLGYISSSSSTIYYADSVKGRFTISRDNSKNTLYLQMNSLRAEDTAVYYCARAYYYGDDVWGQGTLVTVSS VL: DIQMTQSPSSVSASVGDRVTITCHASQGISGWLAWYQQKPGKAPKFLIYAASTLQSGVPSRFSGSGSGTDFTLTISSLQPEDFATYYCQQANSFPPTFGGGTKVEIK | 3.5e+06

Any idea what its kon is? The binder is BAP-143-00-01 (antibody, V domains shown, Used as a conjugate with a linker payload (CAB ADC)) VH: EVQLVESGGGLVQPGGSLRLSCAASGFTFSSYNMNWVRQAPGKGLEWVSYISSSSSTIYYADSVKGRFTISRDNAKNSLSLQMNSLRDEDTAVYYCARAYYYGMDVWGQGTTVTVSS VL: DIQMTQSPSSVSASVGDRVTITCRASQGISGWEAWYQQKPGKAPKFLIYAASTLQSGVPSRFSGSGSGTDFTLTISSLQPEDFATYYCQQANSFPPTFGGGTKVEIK
1.04e+06
